- Tested on: MCF7 breast
- Test Name: NCI tumour cell line growth inhibition, 48 h
In this section, each of the compounds is paired with its reported TGI.

Observe how each entry below is paired with its result.
CC(=O)NC1C(OCc2ccccc2)OC(CO)C(O)C1OCC(=O)N[C@@H](C)C(=O)N[C@H](CCC(=O)NCCNCCNc1c2ccccc2nc2cccc([N+](=O)[O-])c12)C(N)=O (stereo partly drawn) :: > 100 µM
O=C(Cc1nc2ccc(C(=O)c3ccccc3)cc2[nH]c1=O)C(=O)Nc1ccc(Br)cc1 :: > 100 µM

Alright, here's another compound for you.
QUERY: Checklist item: TGI tested on MCF7 breast, entry CC12CC(c3ccccc3O1)C(C(=O)Nc1ccc(F)cc1)C(=O)N2 (stereo not drawn) , value?
RESULT: > 100 µM
